Test system: Escherichia coli TOP10
Assay: shrunken log2 fold change of peptide-encoding DNA abundance (4.5 h post-induction vs induction); higher = less antimicrobial activity (less host growth inhibition)
Settings: time post-induction: 4.5 h; library: site-saturation at positions 5, 18, 19, 20
Classify as follows. Reported shrunken log2 fold change greater than or equal to -0.08: True. Reported shrunken log2 fold change below: False.

Hi team, for `RRIRNRPPRLPRPRPRPKNEPRP` , is the recorded shrunken log2 fold change at or above -0.08?
True

Hi team, for `RRIRRRPPRLPRPRPRPMKIPRP` , is the recorded shrunken log2 fold change at or above -0.08?
True

Hi team, for `RRIRNRPPRLPRPRPRPWIQPRP` , is the recorded shrunken log2 fold change at or above -0.08?
False

Hi team, for `RRIRTRPPRLPRPRPRPVNQPRP` , is the recorded shrunken log2 fold change at or above -0.08?
True

Hi team, for `RRIRTRPPRLPRPRPRPHEGPRP` , is the recorded shrunken log2 fold change at or above -0.08?
True

Hi team, for `RRIRWRPPRLPRPRPRPELAPRP` , is the recorded shrunken log2 fold change at or above -0.08?
True

Hi team, for `RRIRLRPPRLPRPRPRPPARPRP` , is the recorded shrunken log2 fold change at or above -0.08?
True

Hi team, for `RRIRYRPPRLPRPRPRPSVLPRP` , is the recorded shrunken log2 fold change at or above -0.08?
False

Hi team, for `RRIRVRPPRLPRPRPRPSDVPRP` , is the recorded shrunken log2 fold change at or above -0.08?
False

====

Test system: Escherichia coli TOP10
Assay: shrunken log2 fold change of peptide-encoding DNA abundance (4.5 h post-induction vs induction); higher = less antimicrobial activity (less host growth inhibition)
Conditions: time post-induction: 4.5 h; library: site-saturation at positions 5, 18, 19, 20
observationType: shrunken log2 fold change
# output: bare number, no unit

Quickly give me recorded shrunken log2 fold change for `RRIRIRPPRLPRPRPRPAQDPRP`
-0.0552

Quickly give me recorded shrunken log2 fold change for `RRIRERPPRLPRPRPRPKNMPRP`
-0.479

Quickly give me recorded shrunken log2 fold change for `RRIRKRPPRLPRPRPRPRHNPRP`
-0.241

Quickly give me recorded shrunken log2 fold change for `RRIRWRPPRLPRPRPRPIDIPRP`
-0.535

Quickly give me recorded shrunken log2 fold change for `RRIRSRPPRLPRPRPRPILYPRP`
-0.481

Quickly give me recorded shrunken log2 fold change for `RRIRMRPPRLPRPRPRPSMKPRP`
0.0872

Quickly give me recorded shrunken log2 fold change for `RRIRSRPPRLPRPRPRPPIIPRP`
-0.135

Quickly give me recorded shrunken log2 fold change for `RRIRQRPPRLPRPRPRPGISPRP`
0.0461

Quickly give me recorded shrunken log2 fold change for `RRIRMRPPRLPRPRPRPMCYPRP`
0.0406

Quickly give me recorded shrunken log2 fold change for `RRIRARPPRLPRPRPRPTVFPRP`
0.0832

Quickly give me recorded shrunken log2 fold change for `RRIRGRPPRLPRPRPRPFEHPRP`
0.212

Quickly give me recorded shrunken log2 fold change for `RRIRRRPPRLPRPRPRPTFRPRP`
0.0132

Quickly give me recorded shrunken log2 fold change for `RRIRHRPPRLPRPRPRPPQQPRP`
0.6

Quickly give me recorded shrunken log2 fold change for `RRIRIRPPRLPRPRPRPHCMPRP`
-0.697

Quickly give me recorded shrunken log2 fold change for `RRIRPRPPRLPRPRPRPFENPRP`
-0.00884

Quickly give me recorded shrunken log2 fold change for `RRIRERPPRLPRPRPRPVLYPRP`
-0.00668

Quickly give me recorded shrunken log2 fold change for `RRIRERPPRLPRPRPRPPVYPRP`
0.00394

Quickly give me recorded shrunken log2 fold change for `RRIRGRPPRLPRPRPRPFFWPRP`
0.499

Quickly give me recorded shrunken log2 fold change for `RRIRPRPPRLPRPRPRPNSFPRP`
-0.251

Quickly give me recorded shrunken log2 fold change for `RRIRPRPPRLPRPRPRPEFPPRP`
-0.00714

Quickly give me recorded shrunken log2 fold change for `RRIRMRPPRLPRPRPRPRPEPRP`
1.35

Quickly give me recorded shrunken log2 fold change for `RRIRNRPPRLPRPRPRPEVWPRP`
0.815

Quickly give me recorded shrunken log2 fold change for `RRIRQRPPRLPRPRPRPCWVPRP`
-0.0437

Quickly give me recorded shrunken log2 fold change for `RRIRDRPPRLPRPRPRPIQVPRP`
-0.0916

Quickly give me recorded shrunken log2 fold change for `RRIRDRPPRLPRPRPRPCPHPRP`
-0.228

Quickly give me recorded shrunken log2 fold change for `RRIRTRPPRLPRPRPRPLCCPRP`
1

Quickly give me recorded shrunken log2 fold change for `RRIRWRPPRLPRPRPRPWFGPRP`
-0.0254

Quickly give me recorded shrunken log2 fold change for `RRIRKRPPRLPRPRPRPTDWPRP`
0.169

Quickly give me recorded shrunken log2 fold change for `RRIRPRPPRLPRPRPRPDLCPRP`
-0.0739

====

Test system: Escherichia coli TOP10
Assay: shrunken log2 fold change of peptide-encoding DNA abundance (4.5 h post-induction vs induction); higher = less antimicrobial activity (less host growth inhibition)
Conditions: time post-induction: 4.5 h; library: site-saturation at positions 5, 18, 19, 20
Classification field. Basis: shrunken log2 fold change. Definitions: 0 (below -0.2), 1 (-0.2 to below 0.1), 2 (0.1 or more)

Given `RRIRRRPPRLPRPRPRPDSVPRP` , name the class its shrunken log2 fold change places it in.
1

Given `RRIRMRPPRLPRPRPRPWTSPRP` , name the class its shrunken log2 fold change places it in.
1

Given `RRIRSRPPRLPRPRPRPKHAPRP` , name the class its shrunken log2 fold change places it in.
2

Given `RRIRERPPRLPRPRPRPMDVPRP` , name the class its shrunken log2 fold change places it in.
1

Given `RRIRIRPPRLPRPRPRPMAIPRP` , name the class its shrunken log2 fold change places it in.
0

Given `RRIRNRPPRLPRPRPRPMNLPRP` , name the class its shrunken log2 fold change places it in.
1

Given `RRIRLRPPRLPRPRPRPIFDPRP` , name the class its shrunken log2 fold change places it in.
1

Given `RRIRHRPPRLPRPRPRPMTWPRP` , name the class its shrunken log2 fold change places it in.
2

Given `RRIRSRPPRLPRPRPRPLEIPRP` , name the class its shrunken log2 fold change places it in.
2

Given `RRIRRRPPRLPRPRPRPRNYPRP` , name the class its shrunken log2 fold change places it in.
2

Given `RRIRFRPPRLPRPRPRPNTPPRP` , name the class its shrunken log2 fold change places it in.
0

Given `RRIRCRPPRLPRPRPRPTEKPRP` , name the class its shrunken log2 fold change places it in.
0

Given `RRIRLRPPRLPRPRPRPHTGPRP` , name the class its shrunken log2 fold change places it in.
1

Given `RRIRFRPPRLPRPRPRPFTSPRP` , name the class its shrunken log2 fold change places it in.
0

Given `RRIRGRPPRLPRPRPRPWACPRP` , name the class its shrunken log2 fold change places it in.
2

Given `RRIRARPPRLPRPRPRPMNLPRP` , name the class its shrunken log2 fold change places it in.
0

Given `RRIRERPPRLPRPRPRPSEPPRP` , name the class its shrunken log2 fold change places it in.
2

Given `RRIRLRPPRLPRPRPRPFLKPRP` , name the class its shrunken log2 fold change places it in.
1

Given `RRIRHRPPRLPRPRPRPDLPPRP` , name the class its shrunken log2 fold change places it in.
2

Given `RRIRMRPPRLPRPRPRPVGWPRP` , name the class its shrunken log2 fold change places it in.
2

Given `RRIRQRPPRLPRPRPRPWCYPRP` , name the class its shrunken log2 fold change places it in.
0

Given `RRIRHRPPRLPRPRPRPQHIPRP` , name the class its shrunken log2 fold change places it in.
0

Given `RRIRQRPPRLPRPRPRPFVDPRP` , name the class its shrunken log2 fold change places it in.
1

====

Test system: Escherichia coli TOP10
Assay: shrunken log2 fold change of peptide-encoding DNA abundance (4.5 h post-induction vs induction); higher = less antimicrobial activity (less host growth inhibition)
Settings: time post-induction: 4.5 h; library: site-saturation at positions 5, 18, 19, 20
observationType: shrunken log2 fold change
# output: bare number, no unit

Quickly give me recorded shrunken log2 fold change for `RRIRYRPPRLPRPRPRPYCQPRP`
-0.465

Quickly give me recorded shrunken log2 fold change for `RRIRARPPRLPRPRPRPALRPRP`
0.363

Quickly give me recorded shrunken log2 fold change for `RRIRDRPPRLPRPRPRPDVCPRP`
0.833

Quickly give me recorded shrunken log2 fold change for `RRIRDRPPRLPRPRPRPKALPRP`
-0.00674

====

What shrunken log2 fold change was measured for each of the following?
Tested on: Escherichia coli TOP10;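 further: peptides expressed intracellularly from a pBAD plasmid library in pooled LB shake-flask culture, induced with 0.3% L-arabinose, DNA abundance read by NGS, three biological replicates, DESeq2 with apeglm shrinkage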
Experiment: shrunken log2 fold change of peptide-encoding DNA abundance (4.5 h post-induction vs induction); higher = less antimicrobial activity (less host growth inhibition)
Conditions: time post-induction: 4.5 h; library: site-saturation at positions 5, 18, 19, 20
# output: bare number, no unit

Quickly give me recorded shrunken log2 fold change for `RRIRCRPPRLPRPRPRPQGNPRP`
-0.695

Quickly give me recorded shrunken log2 fold change for `RRIRYRPPRLPRPRPRPPDTPRP`
-0.425

Quickly give me recorded shrunken log2 fold change for `RRIRPRPPRLPRPRPRPCKEPRP`
-0.0274
